Numbers sourced from the supplement of paper PMC12632987.

- target: GABARAP, O95166
- Sequence (O95166 whole entry, the tested form may be a part): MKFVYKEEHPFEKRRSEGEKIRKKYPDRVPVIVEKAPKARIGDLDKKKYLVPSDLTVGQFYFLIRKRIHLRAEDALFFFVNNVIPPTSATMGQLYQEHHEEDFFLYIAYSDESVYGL
- experimental-protocol: median log2 fold change of GCK-ALFA target abundance (FLAG IP / Myc IP barcode read proportion) (log2 ratio); each designed protein is fused to an ALFA-tag nanobody in HEK293 cells to bring the named protein to FLAG-tagged glucokinase (GCK); Myc marks an untargeted standard; higher = target protein stabilised (more abundant)
- test-context: target protein: 3xFLAG-MCP-GCK-ALFA reporter; HEK293 landing pad (RPLP)
The full ranking holds about 4,500 sequences; the median of “median log2 fold change of GCK-ALFA target abundance (FLAG IP / Myc IP barcode read proportion)” is about 0.078, and the lowest 2% start at about -0.6. The entries come from a sample that favours the lowest values as a whole.
experimental-readout: median log2 fold change
Could you respond with only the numeric value?

binder: GBRAP_53_6396 (protein) AEKEIKEGLKELEALIKRVKADPTLDPKEVAKEASALFKALVAAGAPEEELVKLAKELAEAVKAKGLGVEVSTALAKAAAEAGAEEVQYVFTEAAVEDLE
median log2 fold change: 0.274

Turning now to a further record.
Ask | Which median log2 fold change is listed for GBRAP_160_4221 (protein) SETIERIVKIFRENFEEAVELIEGESLEEQKVILDVAVGEVILEVSSDENVTDEMEEVVEKKAEEAAEELLKLKNASREEKLKLIEEKAKELKKELEKLA ?
Reply | -0.86
